Measured GI50 by item
System: TK-10
assay_procedure: NCI tumour cell line growth inhibition, 48 h
Calls of active or inactive are those of the source. No stated cut-off is given here; in the data, active = GI50 up to about 1.1 µM and inactive = higher.

Some compounds with recorded GI50:
[in] Param item = CCCCCCCCCC(=O)NCCc1c[nH]c2ccc(OC)cc12 ; retrieve measured GI50.
[out] 18.2 µM (inactive)

[in] Param item = Cc1cc(NC(=S)SCc2ccc(F)cc2)c([N+](=O)[O-])cc1C ; retrieve measured GI50.
[out] 24.2 µM (inactive)

[in] Param item = O=S(=O)(c1ccccc1)[C@H]1[C@@H]2O[C@@H]2C[C@@H]1O ; retrieve measured GI50.
[out] > 100 µM (inactive)

Further cases:
[in] Param item = CC1(C)[C@@H]2CC[C@]1(C)[C@H](OC(=O)/C=C/c1ccccc1)C2 ; retrieve measured GI50.
[out] 36.9 µM (inactive)

[in] Param item = Oc1ccc(-c2nc3cc(C(F)(F)F)ccc3s2)cc1 ; retrieve measured GI50.
[out] 18.8 µM (inactive)

[in] Param item = O=C(Nc1ccc2cc3ccccc3cc2c1)c1cc2c(cc1Cl)Sc1nccn1S2(=O)=O ; retrieve measured GI50.
[out] 16 µM (inactive)

[in] Param item = O=C(CSc1nnc(Cc2ccccc2)o1)Nc1cccc(Cl)c1 ; retrieve measured GI50.
[out] > 100 µM (inactive)

[in] Param item = CC1CC(c2ccccc2)Nc2nc3ccccc3n21 (stereo not drawn) ; retrieve measured GI50.
[out] > 100 µM (inactive)

[in] Param item = CC1C2=C(CCCC2=O)N(c2ccc(Cl)cc2)C2=C1C(=O)CCC2 ; retrieve measured GI50.
[out] 86.7 µM (inactive)

[in] Param item = CCCc1c(O)c(=O)c2c(OC)cc(OC)c3c4c(OC)cc(OC)c5c(=O)c(O)c(CCC)c(c1c23)c54 ; retrieve measured GI50.
[out] 1.9 µM (inactive)

[in] Param item = S=c1[nH]nc(Cn2c3ccc(Br)cc3c3nc4ccccc4nc32)o1 ; retrieve measured GI50.
[out] 69.5 µM (inactive)

[in] Param item = CCC(Nc1ncnc2nc[nH]c12)C(=O)O (stereo not drawn) ; retrieve measured GI50.
[out] > 100 µM (inactive)

[in] Param item = CCOC(=O)c1nc2cc(C(F)(F)F)ccc2nc1Nc1ccc(Cl)c(Cl)c1 ; retrieve measured GI50.
[out] > 100 µM (inactive)

====

System: T47D
assay_procedure: NCI tumour cell line growth inhibition, 48 h
Activity calls are given as the source filed them. Rule as the data show it: active = GI50 up to about 1.1 µM and inactive = higher.
parameter_measured: GI50

[in] Param item = Cn1cc[n+](-c2cc(=O)n(C)c(=O)[n-]2)c1 ; retrieve measured GI50.
[out] 92.3 µM (inactive)

Further cases:
[in] Param item = CC(=O)O[C@@H]1[C@H]2[C@@H](OC(=O)c3ccccc3)[C@@H](C)C[C@]2(O)[C@H](OC(C)=O)[C@@]2(C)[C@@H]3C[C@@](C)(OC(C)=O)C[C@@H](OC(C)=O)[C@@]3(OC(C)=O)C[C@@]12C ; retrieve measured GI50.
[out] > 10 µM (inactive)

[in] Param item = COC(=O)C1C2C=CC(C2)N1S(=O)(=O)c1ccccc1 (centres undefined) ; retrieve measured GI50.
[out] > 100 µM (inactive)

[in] Param item = N#C/C(N)=C(C#N)/N=C/NCc1ccccc1 ; retrieve measured GI50.
[out] 75.9 µM (inactive)

Entry source: ChEMBL document CHEMBL1201862
